tested on: SF-295 CNS; assay: NCI-60 one-dose screen, 48 h (100 = growth as untreated, 0 = no growth, -100 = all killed); conditions: 10 µM unless noted
About 83,000 compounds went through this panel and 20% of them were active in at least one assay; those are over-represented in the sample as a whole.
Outcome label depends on growth relative to 70%: at/above gives true, below gives false.

As a guide, the following entries are already answered.
• O=C1Nc2ccc(Cl)cc2/C1=N/N=C/c1c[nH]c2ccccc12 = true
• CC(C)CCC[C@@H](C)[C@H]1CCC2C3=CCn4c(=O)ccc(=O)n4C3CC[C@@]21C (some centres not stated) = false
• Clc1ccc(-c2cn(-c3ccccc3)c(-c3ccccc3)n2)cc1 = true

State whether the measured growth reaches 70%, counting equality as reaching it, for O=C1C=CC(=Nc2cc(Br)c(O)c(Br)c2)C=C1
true

Now consider O=C(/C=C/C12c3ccccc3C(c3ccccc31)C1C(=O)NC(=O)C12)c1ccc(Cl)cc1 (configuration not stated) and answer again.
false

Now consider Cc1nc(C)c(-c2nn3c(-c4cccc(F)c4)nnc3s2)s1 and answer again.
true
